Where do the numbers come from? From PubChem BioAssay AID624344.

- measurement-description: NFkB reporter suppression in cystic fibrosis bronchial cells – cell-based, uHTS hits, panel, cytotoxicity readout, dose response (AID 624344); call rule not given here
- experimental-context: CF bronchial epithelial cells, PAF-induced NFkB reporter inhibition; with PAF, mean of runs
Would you mind answering with one of these outcomes? yes (1) (active), no (0) (inactive)

Reference set (3 entries):
- COc1ccc(-c2cn[nH]c2-c2ccc(OC)cc2O)cc1: yes (1)
- Cc1ccc(NC(=O)Nc2nnc(-c3ccncc3)s2)cc1: yes (1)
- COc1ccc(N=Cc2cc3c(cc2O)OC(N)=C(C#N)C3c2ccccc2)cc1 (stereo not drawn): yes (1)

Now let's try a different one.
// query Give the logged outcome of this assay for the following compound: Cc1c(O)ccc2c(-c3ccccc3)cc(=O)oc12
// result yes (1)

* * *

- measurement-description: NFkB reporter suppression in cystic fibrosis bronchial cells – cell-based, uHTS hits, panel, cytotoxicity readout, dose response (AID 624344)
- experimental-context: CF bronchial epithelial cells, PAF-induced NFkB reporter inhibition; with PAF, mean of runs
Activity calls are given as the source filed them. No rule for the calls is given here.
A correct response names exactly one class from Y = active, N = inactive

Previously resolved entries follow.
• COc1ccc(-c2cn[nH]c2-c2ccc(OC)cc2)cc1 = Y
• CCN1CCN(Cc2ccc(NC(=O)c3ccc(C)c(NC(=O)c4csc(-c5ccncc5)n4)c3)cc2C(F)(F)F)CC1 = Y
• Cc1ccc(Sc2c(C=O)c3ccccc3n2C)cc1 = Y
• Cn1c(Sc2ccc(Br)cc2)c(C=O)c2ccccc21 = Y
• CC(=O)Nc1ccc(-c2ccnc3c2CC(C(=O)NCc2ccccc2)O3)cc1 (stereo unspecified) = N
• O=Nc1c(O)n(Cc2c(Cl)cccc2Cl)c2ccccc12 = Y
• COc1cccc(-c2ccc3ncnc(NCc4cccnc4)c3c2)c1 = Y
• C=CCN(CC=C)c1ncnc2[nH]ncc12 = Y
• COc1ccc(-c2cc(NC=O)c3ncc(-c4cc(OC)c(OC)c(OC)c4)n3c2)cc1 = N
• CCNC(=O)C1(C)CCCN(Cc2ccc(-c3ccccc3)o2)C1 (stereo unspecified) = Y

// query Field: outcome | Entry: COc1ccc(OC)c(C2CC(=O)c3c([nH]c(C(=O)OC(C)C)c3C)C2)c1 (stereo unspecified)
// result N

* * *

- measurement-description: NFkB reporter suppression in cystic fibrosis bronchial cells – cell-based, uHTS hits, panel, cytotoxicity readout, dose response (AID 624344)
- experimental-context: CF bronchial epithelial cells, PAF-induced NFkB reporter inhibition; with PAF, mean of runs
Activity calls are given as the source filed them. How the calls were made is not given here.
readout-name: IC50

Observe how each entry below is paired with its result.
• Cc1c(Cl)cccc1NC(=O)COC(=O)c1c2c(nc3ccccc13)CCN(Cc1ccccc1)C2 = 6.85 µM
• COc1ccc2[nH]c3c(c2c1)CC(C)NC3=O (stereo not given) = 1.3 µM
• COc1cc(O)c(CC=C(C)C)c(O)c1C(=O)CCc1ccc(O)cc1 = 5 µM
• CC1=C(C(=O)OCc2ccc3c(c2)OCO3)C(c2ccc(O)c([N+](=O)[O-])c2)NC(=O)N1 (stereo not given) = 1.71 µM
• NC(=O)c1cc2ccc(O)cc2oc1=Nc1ccccc1 = 1.41 µM
• CCOC(=O)/C=c1/s/c(=C\c2c(OC)ccc3ccccc23)c(=O)n1CC(=O)NCC1CCCO1 (stereo not given) = > 79 µM (inactive)

// each molecule listed below needs its IC50
1. Cc1ccc(S(=O)(=O)Nc2cccc3ncccc23)s1
2. CC(=O)Oc1c(Cl)cc(N(C(C)=O)S(=O)(=O)c2ccccc2)c2ccccc12
3. NC(N)=NN=C(c1ccc(F)cc1)c1ccc(C(F)(F)F)cc1

// result
1. 1.48 µM
2. 7.68 µM
3. 5.87 µM

* * *

- measurement-description: NFkB reporter suppression in cystic fibrosis bronchial cells – cell-based, uHTS hits, panel, cytotoxicity readout, dose response (AID 624344)
- experimental-context: CF bronchial epithelial cells, PAF-induced NFkB reporter inhibition; with PAF, mean of runs
readout-name: pIC50
Give bare numbers, as −log10 of the molar value.

Solved entries:
* CCC1=C(CC2NCCc3ccccc32)CC2c3cc(OC)c(OC)cc3CCN2C1 (stereo not given) | 5.36
* CCOc1ccccc1NC(=O)c1nc(S(=O)(=O)Cc2ccccc2)ncc1Cl | 5.74
* OCCN1CCN(c2ncnc3ccc(Br)cc23)CC1 | 5.61

Record pIC50 per entry; entries follow.
1. Cc1[nH]nc2ncc(C(=O)c3ccccc3O)cc12
2. O=C(NNc1ccccc1Br)C(O)(c1cccc(C(F)(F)F)c1)c1cccc(C(F)(F)F)c1

// result
5.77
5.24

Need pIC50 for each of these molecules.
1. C[C@@H]1CN([C@H](C)CO)C(=O)c2cc(NC(=O)Nc3ccc(C(F)(F)F)cc3)ccc2O[C@H]1CN(C)S(=O)(=O)c1ccccc1
2. COc1cc(NC(=O)c2cc3ccccc3cc2OC)ccc1NC(=O)c1cccs1

// result
5.04
5.24

* * *

- measurement-description: NFkB reporter suppression in cystic fibrosis bronchial cells – cell-based, uHTS hits, panel, cytotoxicity readout, dose response (AID 624344)
- experimental-context: CF bronchial epithelial cells, PAF-induced NFkB reporter inhibition; with PAF, mean of runs
Active and inactive are the calls of the source. No rule for the calls is given here.
readout-name: IC50

Here's what some known entries look like.
• NC(=S)N1OC[C@@H]2COc3ccc4ccccc4c3[C@@H]21 = 4.75 µM
• CC(=O)Nc1ccc(-c2ccnc3c2CC(C(=O)NCc2ccco2)O3)cc1 (stereo unspecified) = inactive
• Clc1ccc(Cn2ncc3c(N4CCN(c5ccccc5)CC4)ncnc32)cc1 = 4.7 µM
• O=C(Nc1ccc(N2CCN(C(=O)c3ccccc3F)CC2)cc1)c1cncc(Br)c1 = 2.67 µM
• COc1cccc(-c2cc(NC=O)c3ncc(-c4ccc(C(C)=O)cc4)n3c2)c1 = 11.8 µM
• Cn1nnnc1Sc1ncnc2scc(-c3ccc[nH]3)c12 = 14.7 µM
• CCC(CO)Oc1cc(NCc2ccc(Cl)cc2Cl)c2ncn(C(C)C)c2c1 (stereo unspecified) = inactive
• Brc1ccc2ncnc(NCc3cccnc3)c2c1 = 2.25 µM
• COc1ccc(-c2cnc(N)nc2-c2ccc(OC)cc2O)cc1 = 4.66 µM
• COc1ccc(-c2cncnc2-c2ccc(OC)cc2O)cc1 = 4.39 µM

Answer for every listed entry: what is its IC50? The entries follow.
1. COc1cc(O)cc2cc3c(c(O)c12)C(=O)CC(C)(O)O3 (stereo unspecified)
2. CC(=O)Nc1ccc(NC(=O)C(C)OC(=O)c2ccccc2C(=O)c2ccc(Cl)c([N+](=O)[O-])c2)cc1 (stereo unspecified)
3. O=C(N/N=C/c1ccccc1)c1[nH]c2ccc(Br)cc2c1-c1ccccc1

// result
["4.17 µM", "15.3 µM", "6.11 µM"]

Your task in this section: give IC50 for each listed record.
1. O=C(c1nnsc1S(=O)(=O)c1ccc(Cl)cc1)N1CCOCC1
2. O=C(Nc1ccc(Oc2ccc(NC(=O)Nc3ccc([N+](=O)[O-])cc3)cc2)cc1)Nc1ccc([N+](=O)[O-])cc1
3. CC(=O)OC1CCC2(C)C(CCC3C4CC=C(C(C)=O)C4(C)OC(=O)CC32)C1 (stereo unspecified)
4. Cc1ncc(CO)c2c1Oc1nc(-c3ccccc3F)nc(SCC(=O)N(C)c3ccccc3)c1C2
5. CC(=O)c1c(C)n(C2CCCCC2)c2ccc(O)cc12

// result
1: 3.85 µM; 2: 6.12 µM; 3: 0.972 µM; 4: 4.17 µM; 5: 0.797 µM

* * *

- measurement-description: NFkB reporter suppression in cystic fibrosis bronchial cells – cell-based, uHTS hits, panel, cytotoxicity readout, dose response (AID 624344); call rule not given here
- experimental-context: CF bronchial epithelial cells, PAF-induced NFkB reporter inhibition; with PAF, mean of runs
// one of yes = active, no = inactive, no free text

Examples from the recorded data:
* COc1ccc2ncn(-c3ccccc3)c2c1 | yes
* Cc1c([N+](=O)[O-])c2ccc(O)cc2n1-c1ccccc1 | yes

// query Outcome? C=Cc1ccc(CC2(C)C(=O)Nc3ccc(-c4cccnc4)cc32)cc1 (stereo unspecified)
// result yes

// query How did this test come out for CNC(=O)c1ccc(NC(=O)C2CCN(c3ncnc4sc(C)c(C)c34)CC2)cc1 ?
// result yes

* * *

- measurement-description: NFkB reporter suppression in cystic fibrosis bronchial cells – cell-based, uHTS hits, panel, cytotoxicity readout, dose response (AID 624344)
- experimental-context: CF bronchial epithelial cells, PAF-induced NFkB reporter inhibition; with PAF, mean of runs
Field: IC50. Provide a value for each of the compounds that follow.

Below, 4 compounds whose answers are already recorded.
* COc1ccc(-c2csc(/C(C#N)=C\c3ccc(O)c([N+](=O)[O-])c3)n2)cc1OC | 2.82 µM
* Cc1cccc(C)c1NS(=O)(=O)c1ccc(-c2cnc(C3CC3)o2)cc1 | 11.8 µM
* OCCCNc1ncnc2scc(-c3ccc(Cl)cc3)c12 | 2.35 µM
* CCN(c1ccc(OC)cc1)c1ncnc2nc[nH]c12 | 3.62 µM

Below is a list of compounds. For each, state its recorded IC50.
1. Clc1cncc(Cl)c1N/N=C/c1ccncc1
2. CC[C@@H](C(=O)[C@@H](C)[C@@H](O)[C@H](C)[C@@H]1O[C@@H]([C@@H](CC)C(=O)O)CC[C@@H]1C)[C@H]1O[C@]2(C=C[C@@H](O)[C@]3(CC[C@@](C)([C@H]4CC[C@](O)(CC)[C@H](C)O4)O3)O2)[C@H](C)C[C@@H]1C
3. CN(C)/C=C/C(=O)c1ccc2noc(-c3ccccc3)c2c1
4. O=[N+]([O-])c1cccc(/C=N/Nc2cc(N3CCOCC3)ncn2)c1
5. CCOC(=O)c1c(C)[nH]c(C(=O)N/N=C/c2ccc(Br)cc2)c1C

// result
1: 1.67 µM; 2: 0.399 µM; 3: 3.54 µM; 4: 3.21 µM; 5: 14.6 µM
